test-system: C-C chemokine receptor type 5 (Homo sapiens)
Sequence (P51681 whole entry): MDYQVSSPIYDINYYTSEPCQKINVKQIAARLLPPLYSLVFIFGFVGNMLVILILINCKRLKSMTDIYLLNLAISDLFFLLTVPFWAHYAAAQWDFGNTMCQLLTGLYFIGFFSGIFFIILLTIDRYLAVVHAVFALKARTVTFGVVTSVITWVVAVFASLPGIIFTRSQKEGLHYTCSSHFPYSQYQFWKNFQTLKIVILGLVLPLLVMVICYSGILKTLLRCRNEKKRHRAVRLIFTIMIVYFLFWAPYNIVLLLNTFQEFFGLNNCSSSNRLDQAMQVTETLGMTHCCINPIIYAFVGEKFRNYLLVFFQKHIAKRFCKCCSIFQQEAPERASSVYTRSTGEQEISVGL
method-notes: Inhibitory activity against human CC chemokine receptor 5
Records here are stratified by IC50; strata: low interval: < 4 nM; middle interval: ≥ 4 nM and < 10 nM; high interval: ≥ 10 nM

Query: # classify by IC50 band: CCn1nc(-c2ccc(CN)cc2)cc1C1CCN(C[C@H]2CN([C@@H](C(=O)O)C3CCCCC3)C[C@@H]2c2ccccc2)CC1
Reply: high interval

Query: Kindly identify the class of CC(C)(c1ccccc1)c1cn[nH]c1C1CCN(C[C@H]2CN([C@@H](C(=O)O)C3CCCCC3)C[C@@H]2c2ccccc2)CC1 .
Reply: high interval

Query: Please let me know in which category the item O=C(O)Cn1nc(Cc2ccccc2)cc1C1CCN(C[C@H]2CN([C@@H](C(=O)O)C3CCCCC3)C[C@@H]2c2ccccc2)CC1 belongs.
Reply: high interval

Query: State the class of the compound shown: CCn1ncc(CCc2ccccc2)c1C1CCN(C[C@H]2CN([C@@H](C(=O)O)C3CCCCC3)C[C@@H]2c2ccccc2)CC1
Reply: low interval

Query: Class? Entry: O=C(O)[C@@H](C1CCCCC1)N1C[C@H](CN2CCC(c3nocc3Cc3ccccc3)CC2)[C@@H](c2ccccc2)C1
Reply: low interval

Query: Note: place this compound into its band. Item: Cn1nc(Cc2ccccc2)cc1C1CCN(C[C@H]2CN([C@@H](C(=O)O)C3CCCCC3)C[C@@H]2c2ccccc2)CC1
Reply: middle interval

Query: Band for the recorded IC50 of O=C(O)[C@@H](C1CCCCC1)N1C[C@H](CN2CCC(c3[nH]ncc3Cc3ccccc3)CC2)[C@@H](c2ccccc2)C1 ?
Reply: middle interval

Query: Category of O=C(O)[C@@H](C1CCCCC1)N1C[C@H](CN2CCC(c3cc(Cc4ccccc4)n[nH]3)CC2)[C@@H](c2ccccc2)C1 :
Reply: low interval

Query: Form field 'band' for O=C(O)[C@@H](C1CCCCC1)N1C[C@H](CN2CCC(c3n[nH]cc3C3(c4ccccc4)CC3)CC2)[C@@H](c2ccccc2)C1
Reply: middle interval

Query: Hi, small favor: classify CCn1ncc(C(C)(C)c2ccccc2)c1C1CCN(C[C@H]2CN([C@@H](C(=O)O)C3CCCCC3)C[C@@H]2c2ccccc2)CC1 by its IC50 when you get a moment.
Reply: middle interval

Query: Which category fits this record: O=C(O)[C@@H](C1CCCCC1)N1C[C@H](CN2CCC(c3n[nH]cc3CCc3ccccc3)CC2)[C@@H](c2ccccc2)C1
Reply: low interval

Query: Hi, small favor: classify CCOC(=O)Cn1nc(Cc2ccccc2)cc1C1CCN(C[C@H]2CN([C@@H](C(=O)O)C3CCCCC3)C[C@@H]2c2ccccc2)CC1 by its IC50 when you get a moment.
Reply: middle interval

Query: Please report the category associated with CCn1nc(-c2ccc(C#N)cc2)cc1C1CCN(C[C@H]2CN([C@@H](C(=O)O)C3CCCCC3)C[C@@H]2c2ccccc2)CC1 , nothing else.
Reply: high interval

Query: Category lookup for the compound O=C(O)[C@@H](C1CCCCC1)N1C[C@H](CN2CCC(c3oncc3Cc3ccccc3)CC2)[C@@H](c2ccccc2)C1
Reply: low interval

Query: Which bin should I file O=C(c1ccccc1)c1c[nH]nc1C1CCN(C[C@H]2CN([C@@H](C(=O)O)C3CCCCC3)C[C@@H]2c2ccccc2)CC1 under?
Reply: high interval

Query: Lab note: sort CCn1ncc(C(=O)c2ccccc2)c1C1CCN(C[C@H]2CN([C@@H](C(=O)O)C3CCCCC3)C[C@@H]2c2ccccc2)CC1 into the matching IC50 band.
Reply: high interval

Query: Any idea which band CCn1ncc(Cc2ccccc2)c1C1CCN(C[C@H]2CN([C@@H](C(=O)O)C3CCCCC3)C[C@@H]2c2ccccc2)CC1 is in?
Reply: low interval

Query: Consider CCn1cc(Cc2ccccc2)c(C2CCN(C[C@H]3CN([C@@H](C(=O)O)C4CCCCC4)C[C@@H]3c3ccccc3)CC2)n1 . To which IC50 class does it belong?
Reply: high interval

Query: The entry to classify is CCCn1nc(Cc2ccccc2)cc1C1CCN(C[C@H]2CN([C@@H](C(=O)O)C3CCCCC3)C[C@@H]2c2ccccc2)CC1 ; which class holds it?
Reply: middle interval
